Test target: E. coli CsgA (Escherichia coli)
Construct: made in house; host or cells: E. coli NEB 3016 slyD::kan, pET11d
Sequence (P28307 23-151): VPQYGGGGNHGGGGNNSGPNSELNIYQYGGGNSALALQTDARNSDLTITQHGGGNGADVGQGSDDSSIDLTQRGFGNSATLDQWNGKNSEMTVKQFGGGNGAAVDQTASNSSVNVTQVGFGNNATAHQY
Measurement notes: In vitro ThioflavinT assay of CsgA aggregation (CsgA ThT Assay)
Assay type: biochemical
Assay conditions: read-out: CsgA ThT Assay (2 μM CsgA) % Control Bmax 100 μM, mean Bmax as percentage of DMSO control; CsgA 2 μM, white plates; compound 100 μM
Friendly reminder: remaining activity at 100 µM below 30% is met, at or above is not met.

Molecule | Group
O=C(O)C1CN(Cc2ccccc2)c2c(-c3cccc(C(F)(F)F)c3)c(Cc3cccc4ccccc34)c(Cl)c(=O)n21 (stereo not shown) [Compound 004] | met

Exercise: Given O=C(O)C1CN(Cc2ccncc2)c2c(-c3cccc(C(F)(F)F)c3)c(Cc3cccc4ccccc34)c(Cl)c(=O)n21 (stereo not shown) [Compound 174] , is recorded remaining activity at 100 µM strictly lower than 30%?
Solution: not met

Exercise: Given NC(=O)c1c(Cc2cccc3ccccc23)c(-c2cccc(C(F)(F)F)c2)c2n(c1=O)C(C(=O)O)CN2Cc1ccccc1 (stereo not shown) [Compound 203] , is recorded remaining activity at 100 µM strictly lower than 30%?
Solution: not met

Exercise: Given O=C(O)C1CNS(=O)(=O)c2c(-c3cccc(C(F)(F)F)c3)c(Cc3cccc4ccccc34)c(NC3CCCC3)c(=O)n21 (stereo not shown) [Compound 005] , is recorded remaining activity at 100 µM strictly lower than 30%?
Solution: met

Exercise: Given O=C(O)C1CN(Cc2ccccc2)c2c(-c3cccc(C(F)(F)F)c3)c(Cc3cccc4ncccc34)c(Cl)c(=O)n21 (stereo not shown) [Compound 211] , is recorded remaining activity at 100 µM strictly lower than 30%?
Solution: not met

Exercise: Given O=C(O)C1CN(CCCCCCCN2CC(C(=O)O)n3c2c(-c2cccc(C(F)(F)F)c2)c(Cc2cccc4ccccc24)c(Cl)c3=O)c2c(-c3cccc(C(F)(F)F)c3)c(Cc3cccc4ccccc34)c(Cl)c(=O)n21 (stereo not shown) [Compound 188] , is recorded remaining activity at 100 µM strictly lower than 30%?
Solution: met

Exercise: Given CCCN1CC(C(=O)O)n2c(c(-c3cccc(C(F)(F)F)c3)c(Cc3cccc4ccccc34)c(O)c2=O)S1(=O)=O (stereo not shown) [Compound 141] , is recorded remaining activity at 100 µM strictly lower than 30%?
Solution: not met
